- System: Escherichia coli TOP10
- test.summary: shrunken log2 fold change of peptide-encoding DNA abundance (4.5 h post-induction vs induction); higher = less antimicrobial activity (less host growth inhibition)
- condition.description: time post-induction: 4.5 h; library: site-saturation at positions 5, 18, 19, 20
Some sequences, each annotated with its measured shrunken log2 fold change.
The answer should be written as a number, with no unit following it.

RRIRYRPPRLPRPRPRPKSGPRP = 0.0623
RRIRVRPPRLPRPRPRPDYQPRP = 0.0174
RRIRARPPRLPRPRPRPQLIPRP = 0.184
RRIRNRPPRLPRPRPRPEERPRP = -0.116
RRIRIRPPRLPRPRPRPFQCPRP = 0.00367
RRIRYRPPRLPRPRPRPERVPRP = -0.0107
RRIRLRPPRLPRPRPRPCNAPRP = -0.129
RRIRKRPPRLPRPRPRPIKSPRP = 3.22

// switching to the query sequence
[in] What does the record list as shrunken log2 fold change for RRIRKRPPRLPRPRPRPINMPRP ?
[out] -0.196

###

- Tested on: Escherichia coli TOP10
- test.summary: shrunken log2 fold change of peptide-encoding DNA abundance (4.5 h post-induction vs induction); higher = less antimicrobial activity (less host growth inhibition)
- condition.description: time post-induction: 4.5 h; library: site-saturation at positions 5, 18, 19, 20
Some sequences, each annotated with its measured shrunken log2 fold change.
The answer should be written as a number, with no unit following it.

These solved cases illustrate the format of a correct answer.
RRIRERPPRLPRPRPRPKQSPRP = -0.0888
RRIRWRPPRLPRPRPRPHTVPRP = 0.00981
RRIRRRPPRLPRPRPRPKWLPRP = 0.269
RRIRDRPPRLPRPRPRPSLPPRP = -0.00636
RRIRCRPPRLPRPRPRPCINPRP = -0.0741

[in] What does the record list as shrunken log2 fold change for RRIRMRPPRLPRPRPRPWHTPRP ?
[out] 0.0985

[in] What does the record list as shrunken log2 fold change for RRIRWRPPRLPRPRPRPLSVPRP ?
[out] 0.0836

[in] What does the record list as shrunken log2 fold change for RRIRPRPPRLPRPRPRPHDQPRP ?
[out] 0.134

###

- System: Escherichia coli TOP10
- test.summary: shrunken log2 fold change of peptide-encoding DNA abundance (4.5 h post-induction vs induction); higher = less antimicrobial activity (less host growth inhibition)
- condition.description: time post-induction: 4.5 h; library: site-saturation at positions 5, 18, 19, 20
// classify(record): look up shrunken log2 fold change in ranges range 1 = under -0.1, range 2 = from -0.1 up to 0.2, range 3 = 0.2 and over

Reference set (10 entries):
RRIRKRPPRLPRPRPRPVIIPRP = range 2
RRIRMRPPRLPRPRPRPDKWPRP = range 3
RRIRNRPPRLPRPRPRPLEVPRP = range 1
RRIRNRPPRLPRPRPRPAYNPRP = range 1
RRIRGRPPRLPRPRPRPDQTPRP = range 2
RRIRNRPPRLPRPRPRPPVKPRP = range 1
RRIRTRPPRLPRPRPRPSQEPRP = range 1
RRIRVRPPRLPRPRPRPPPIPRP = range 3
RRIRWRPPRLPRPRPRPSKQPRP = range 2
RRIRIRPPRLPRPRPRPFGVPRP = range 2

[in] # bin lookup: classify RRIRERPPRLPRPRPRPCIHPRP by its shrunken log2 fold change
[out] range 1

[in] # bin lookup: classify RRIRARPPRLPRPRPRPCYSPRP by its shrunken log2 fold change
[out] range 1

[in] # bin lookup: classify RRIRVRPPRLPRPRPRPSNVPRP by its shrunken log2 fold change
[out] range 1

[in] # bin lookup: classify RRIRPRPPRLPRPRPRPCEGPRP by its shrunken log2 fold change
[out] range 2

[in] # bin lookup: classify RRIRKRPPRLPRPRPRPDCTPRP by its shrunken log2 fold change
[out] range 3

[in] # bin lookup: classify RRIRWRPPRLPRPRPRPWNVPRP by its shrunken log2 fold change
[out] range 2

###

Some sequences, each annotated with its measured shrunken log2 fold change.
- Tested on: Escherichia coli TOP10
- test.summary: shrunken log2 fold change of peptide-encoding DNA abundance (4.5 h post-induction vs induction); higher = less antimicrobial activity (less host growth inhibition)
- condition.description: time post-induction: 4.5 h; library: site-saturation at positions 5, 18, 19, 20
The answer should be written as a number, with no unit following it.

These solved cases illustrate the format of a correct answer.
RRIRKRPPRLPRPRPRPVRHPRP = 0.0899
RRIRARPPRLPRPRPRPMIVPRP = -0.262
RRIRDRPPRLPRPRPRPKNSPRP = 0.788
RRIRCRPPRLPRPRPRPDMRPRP = 0.018
RRIRHRPPRLPRPRPRPDIQPRP = -0.0379
RRIRWRPPRLPRPRPRPRYRPRP = 0.124

[in] Enter reported shrunken log2 fold change observed with Escherichia coli TOP10 for RRIRGRPPRLPRPRPRPSTSPRP
[out] 0.315

[in] Enter reported shrunken log2 fold change observed with Escherichia coli TOP10 for RRIRRRPPRLPRPRPRPTWPPRP
[out] 0.647

[in] Enter reported shrunken log2 fold change observed with Escherichia coli TOP10 for RRIRDRPPRLPRPRPRPLPWPRP
[out] 0.572

[in] Enter reported shrunken log2 fold change observed with Escherichia coli TOP10 for RRIRWRPPRLPRPRPRPTFHPRP
[out] 0.00721

###

- Test system: Escherichia coli TOP10
- test.summary: shrunken log2 fold change of peptide-encoding DNA abundance (4.5 h post-induction vs induction); higher = less antimicrobial activity (less host growth inhibition)
- condition.description: time post-induction: 4.5 h; library: site-saturation at positions 5, 18, 19, 20
Each entry gets not satisfied if its shrunken log2 fold change stays under 0.08, and satisfied if its shrunken log2 fold change is 0.08 or above.

RRIRDRPPRLPRPRPRPLCHPRP = satisfied
RRIRMRPPRLPRPRPRPQRNPRP = satisfied
RRIRHRPPRLPRPRPRPKQWPRP = satisfied

[in] hey, is shrunken log2 fold change for this one >= 0.08? RRIRFRPPRLPRPRPRPVSKPRP
[out] not satisfied

[in] hey, is shrunken log2 fold change for this one >= 0.08? RRIRQRPPRLPRPRPRPWYWPRP
[out] not satisfied

[in] hey, is shrunken log2 fold change for this one >= 0.08? RRIRQRPPRLPRPRPRPVYYPRP
[out] not satisfied

[in] hey, is shrunken log2 fold change for this one >= 0.08? RRIRKRPPRLPRPRPRPPISPRP
[out] satisfied

###

- Test system: Escherichia coli TOP10
- test.summary: shrunken log2 fold change of peptide-encoding DNA abundance (4.5 h post-induction vs induction); higher = less antimicrobial activity (less host growth inhibition)
- condition.description: time post-induction: 4.5 h; library: site-saturation at positions 5, 18, 19, 20
Each entry gets no if its shrunken log2 fold change stays under 0.009, and yes if its shrunken log2 fold change is 0.009 or above.

Reference set (10 entries):
RRIRYRPPRLPRPRPRPSTNPRP = no
RRIRFRPPRLPRPRPRPNNCPRP = no
RRIRGRPPRLPRPRPRPGGYPRP = yes
RRIRYRPPRLPRPRPRPMQSPRP = yes
RRIRMRPPRLPRPRPRPCLVPRP = yes
RRIRMRPPRLPRPRPRPDFPPRP = no
RRIRYRPPRLPRPRPRPKTDPRP = no
RRIRPRPPRLPRPRPRPDFCPRP = no
RRIRNRPPRLPRPRPRPQYCPRP = no
RRIRPRPPRLPRPRPRPFLRPRP = no

[in] hey, is shrunken log2 fold change for this one >= 0.009? RRIRGRPPRLPRPRPRPPGWPRP
[out] yes

[in] hey, is shrunken log2 fold change for this one >= 0.009? RRIRNRPPRLPRPRPRPPSNPRP
[out] no

[in] hey, is shrunken log2 fold change for this one >= 0.009? RRIRWRPPRLPRPRPRPCAHPRP
[out] no

[in] hey, is shrunken log2 fold change for this one >= 0.009? RRIRERPPRLPRPRPRPKFYPRP
[out] no

###

- Test system: Escherichia coli TOP10;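 further: peptides expressed intracellularly from a pBAD plasmid library in pooled LB shake-flask culture, induced with 0.3% L-arabinose, DNA abundance read by NGS, three biological replicates, DESeq2 with apeglm shrinkage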
- test.summary: shrunken log2 fold change of peptide-encoding DNA abundance (4.5 h post-induction vs induction); higher = less antimicrobial activity (less host growth inhibition)
- condition.description: time post-induction: 4.5 h; library: site-saturation at positions 5, 18, 19, 20
Each entry gets n if its shrunken log2 fold change stays under -0.006, and y if its shrunken log2 fold change is -0.006 or above.

RRIRTRPPRLPRPRPRPFGFPRP = n
RRIRARPPRLPRPRPRPMFVPRP = n
RRIRPRPPRLPRPRPRPTDGPRP = n

[in] hey, is shrunken log2 fold change for this one >= -0.006? RRIRVRPPRLPRPRPRPHFHPRP
[out] y

[in] hey, is shrunken log2 fold change for this one >= -0.006? RRIRQRPPRLPRPRPRPNEHPRP
[out] n

[in] hey, is shrunken log2 fold change for this one >= -0.006? RRIRQRPPRLPRPRPRPSTNPRP
[out] n

[in] hey, is shrunken log2 fold change for this one >= -0.006? RRIRLRPPRLPRPRPRPGTFPRP
[out] y

[in] hey, is shrunken log2 fold change for this one >= -0.006? RRIRKRPPRLPRPRPRPFFKPRP
[out] y

[in] hey, is shrunken log2 fold change for this one >= -0.006? RRIRSRPPRLPRPRPRPCDSPRP
[out] n

[in] hey, is shrunken log2 fold change for this one >= -0.006? RRIRHRPPRLPRPRPRPMHLPRP
[out] y

[in] hey, is shrunken log2 fold change for this one >= -0.006? RRIRGRPPRLPRPRPRPSDPPRP
[out] y

[in] hey, is shrunken log2 fold change for this one >= -0.006? RRIRGRPPRLPRPRPRPMNFPRP
[out] n
